Listed below: Diameter of zone of inhibition values for each entry.
tested on: S. aureus ATCC 6538; test: agar diffusion test (Test System II, multi-resistant germs); assay type: cell-based, Staphylococcus aureus; settings: Quantity n 0.019
Provide the reading as a plain figure in mm.

Some compounds with recorded Diameter of zone of inhibition:
compound="CC1=C(C(=O)O)N2C(=O)[C@@H](NC(=O)[C@H](N)c3ccc(O)cc3)[C@H]2SC1 [2a, Cefadroxil, reference compound]" reported_property="Diameter of zone of inhibition" quantitative_readout=32
compound="CCOC(=O)C1=C(NC(C(=O)NC2C(=O)C3CC(Cl)=C(C(=O)O)NC32)c2ccccc2)C(=O)C=CC1=O (centres unmarked) [1p]" reported_property="Diameter of zone of inhibition" quantitative_readout=22
compound="COC(=O)C1=C(NC(C(=O)NC2C(=O)N3C(C(=O)O)=C(C)CSC23)c2ccc(O)cc2)C(=O)C=CC1=O (centres unmarked) [1c]" reported_property="Diameter of zone of inhibition" quantitative_readout=18

# Diameter of zone of inhibition lookup, item N[C@@H](C(=O)N[C@@H]1C(=O)N2C(C(=O)O)=C(Cl)CS[C@H]12)c1ccccc1 [2c, Cefaclor, reference compound]
30

Follow-up entry: CCOC(=O)C1=C(NC(C(=O)NC2C(=O)N3C(C(=O)O)=C(Cl)CSC23)c2ccccc2)C(=O)C=CC1=O (centres unmarked) [1l]
24
